target: Orexin/Hypocretin receptor type 1 (Homo sapiens, UniProt O43613); assay: Homogeneous Time Resolved Fluorescence (HTRF)-based cell-based high throughput dose response assay for antagonists of the orexin 1 receptor (OX1R; HCRTR1). [Related pubchem assays (depositor defined):AID434989, AID435008, AID463079, AID485270, AID492963, AID492964, AID492965, AID493232, AID504717, AID504718]; type: functional;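 further: antagonism measured against Orexin-A challenge at about its EC80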
Sequence (O43613 whole entry): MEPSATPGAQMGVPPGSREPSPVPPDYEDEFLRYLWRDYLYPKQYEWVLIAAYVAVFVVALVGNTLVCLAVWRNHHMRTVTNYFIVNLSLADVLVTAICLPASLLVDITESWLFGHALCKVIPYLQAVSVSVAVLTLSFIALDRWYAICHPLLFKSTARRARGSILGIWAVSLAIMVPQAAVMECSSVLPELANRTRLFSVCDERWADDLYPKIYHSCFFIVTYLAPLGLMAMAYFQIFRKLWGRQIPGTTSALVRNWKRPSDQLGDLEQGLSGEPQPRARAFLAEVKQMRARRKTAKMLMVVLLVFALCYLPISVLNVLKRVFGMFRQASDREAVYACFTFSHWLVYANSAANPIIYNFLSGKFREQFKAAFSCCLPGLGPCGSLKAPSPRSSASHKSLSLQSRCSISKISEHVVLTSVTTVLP
The source made the active and inactive calls.
MEASUREMENT_KIND: IC50

State IC50 on Orexin/Hypocretin receptor type 1 (Homo sapiens, UniProt O43613). Entry: C=CCn1c(SCC(=O)Nc2cc3oc4ccccc4c3cc2OC)nnc1-c1cnccn1 339 nM (active)

State IC50 on Orexin/Hypocretin receptor type 1 (Homo sapiens, UniProt O43613). Entry: CCn1c2ccccc2c2cc(NC(=O)c3cccc(OC)c3OC)ccc21 1700 nM (active)

State IC50 on Orexin/Hypocretin receptor type 1 (Homo sapiens, UniProt O43613). Entry: CSc1cccc(NC(=O)C2CCCN(S(=O)(=O)c3ccc(F)cc3)C2)c1 (centres undefined) 1590 nM (active)

State IC50 on Orexin/Hypocretin receptor type 1 (Homo sapiens, UniProt O43613). Entry: Cc1cccc(NC(=O)NNC(=O)c2cc(-c3ccccc3Cl)nc3ccccc23)c1 815 nM (active)

###

What follows is a record of AC50 for Cytochrome P450 2D6 (Homo sapiens).

Provide AC50 value for the following compound: COc1ccc(CONS(=O)(=O)c2ccc(NC(C)=O)cc2)cc1Cl 3.55 µM (inconclusive)

Provide AC50 value for the following compound: COc1ccc2nc(C)cc(SCC(=O)NNC(=O)COc3ccccc3)c2c1 10 µM (inconclusive)

Provide AC50 value for the following compound: CCCCC#Cc1nc(NC)c2ncn([C@@H]3O[C@@H](CO)[C@H](O)[C@H]3O)c2n1 31.6 µM (inconclusive)

Provide AC50 value for the following compound: Cc1nn(-c2ccccc2)c(C)c1/C=N/NC(=O)c1cc(-c2ccc(Cl)s2)[nH]n1 25.1 µM (inconclusive)

Provide AC50 value for the following compound: O=C(/C=C\c1ccc(O)c(O)c1)OCCc1ccccc1 39.8 µM (inconclusive)

Provide AC50 value for the following compound: Cc1ccc(NC(=O)C2(NC(=O)c3cccc(N4C(=O)CSC4c4ccccc4)c3)CCCCC2)cc1 (configuration not stated) 1.12 µM (inconclusive)

Provide AC50 value for the following compound: Cc1csc(NC(=O)Cc2c[nH]c3ccccc23)n1 22.4 µM (inconclusive)

Provide AC50 value for the following compound: C(=N\N(c1ccccc1)c1ccccc1)/c1ccc2c(c1)OCO2 10 µM (inconclusive)

Provide AC50 value for the following compound: COC(=O)C1=C(C)OC(N)=C(C#N)C1C1CCCCC1 (configuration not stated) 31.6 µM (inconclusive)

Provide AC50 value for the following compound: CCOC(=O)C1=C(O)C(=O)N(Cc2ccccc2)C1 31.6 µM (inconclusive)

Provide AC50 value for the following compound: CC1CCc2c(C(=O)Nc3nccs3)csc2C1 (configuration not stated) 3.55 µM (inconclusive)

Provide AC50 value for the following compound: O=C1c2ccccc2NC(c2ccc(Cl)cc2Cl)N1O (configuration not stated) 14.1 µM (inconclusive)

###

target: Corticotropin-releasing factor receptor 2/Corticotropin-releasing factor-binding protein (Homo sapiens, UniProt P24387+Q13324); test: activators of CRF receptor 2 with binding protein – uHTS hits, confirmation (AID 602473); format: functional; settings: read-out: EC50_Mean
Sequence (Q13324 whole entry): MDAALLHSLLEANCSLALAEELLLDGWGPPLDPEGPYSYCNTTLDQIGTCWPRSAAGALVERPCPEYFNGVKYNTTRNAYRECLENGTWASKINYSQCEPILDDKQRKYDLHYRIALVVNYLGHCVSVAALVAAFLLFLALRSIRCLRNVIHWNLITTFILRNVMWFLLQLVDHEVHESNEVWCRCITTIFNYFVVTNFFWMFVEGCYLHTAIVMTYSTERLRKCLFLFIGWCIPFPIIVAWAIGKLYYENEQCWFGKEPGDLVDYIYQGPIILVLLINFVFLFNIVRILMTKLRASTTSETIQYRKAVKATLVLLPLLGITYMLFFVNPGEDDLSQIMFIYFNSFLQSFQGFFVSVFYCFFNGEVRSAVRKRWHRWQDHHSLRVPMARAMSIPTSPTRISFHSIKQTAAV
Sequence (P24387 whole entry): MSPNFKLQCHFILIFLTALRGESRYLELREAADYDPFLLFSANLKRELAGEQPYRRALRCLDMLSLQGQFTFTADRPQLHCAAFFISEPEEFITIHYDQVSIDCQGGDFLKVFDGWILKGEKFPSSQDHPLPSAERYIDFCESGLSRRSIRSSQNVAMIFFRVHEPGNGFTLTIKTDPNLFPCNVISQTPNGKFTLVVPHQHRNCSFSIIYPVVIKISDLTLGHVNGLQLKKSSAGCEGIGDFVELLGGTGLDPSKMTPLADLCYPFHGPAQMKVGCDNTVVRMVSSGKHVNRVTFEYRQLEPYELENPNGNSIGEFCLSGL
Where a name gives a salt, the structure may show the parent alone. The source made the active and inactive calls.
Pick from active, inactive when you respond.

Query: recorded result category for COc1c2c(c(OC)c3ccccc13)[C@@]1(OC2)O[C@H](CCO)C[C@H](O)[C@H]1O in this test inactive

Query: recorded result category for CC1=Nc2ccccc2/C1=C\c1nc(-c2ccc(C(F)(F)F)cc2)oc1O in this test active

Query: recorded result category for CN(CCOc1ccc(CC2SC(=O)NC2=O)cc1)c1ccccn1 (stereo not given) [ROSIGLITAZONE MALEATE] in this test inactive

Query: recorded result category for COc1ccc(C2CCCN2C(=O)Nc2ccc(C)c(C)c2)cc1OC (stereo not given) in this test inactive

Query: recorded result category for CCOC(=O)Cn1c2c(c(-c3ccccc3OC)cc1=O)CCCC2 in this test inactive
